Measured binding signal of individual entries
# testedSystem: d-enCas12a-Ultra (Acidaminococcus sp., UniProt U2UMQ6 1-1307, E174R;S542R;K548R;M537R;F870L;D908A;E993A;D1235A)
# procedureSummary: Spec-seq (native PAGE EMSA with sequencing of bound and unbound); 25 mM Tris-HCl pH 7.4, 150 mM KCl, 5 mM MgCl2, 10% glycerol, 1 mM DTT, 40 ng/uL salmon sperm DNA; 400 nM Cas12a, 480 nM crRNA, 50 nM library, 37 C 1 h; native PAGE at room temperature; high values mean tight binding;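 note: relative affinity from the bound to unbound sequence frequency ratio in Spec-seq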
# conditionLabel: protein: recombinant
Your reply should be a number followed by the unit it is expressed in.

GAGA (dsDNA) DNA 1: GCTATCTAGTGCTCAGTACGCACTGGAGAAGGAAACTTCTGGCAGGACCAGGTCATGAGATCGGAAGAGCACACGTCTGAACTCCAGTCA DNA 2: TGACTGGAGTTCAGACGTGTGCTCTTCCGATCTCATGACCTGGTCCTGCCAGAAGTTTCCTTCTCCAGTGCGTACTGAGCACTAGATAGC RNA: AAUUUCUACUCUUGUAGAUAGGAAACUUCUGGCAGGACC
-3.42 lnKA

Shift focus to the following entry.
Note to self: binding signal recorded for TGGA (dsDNA) DNA 1: GCTATCTAGTGCTCAGTACGCACTGTGGAAGGAAACTTCTGGCAGGACCAGGTCATGAGATCGGAAGAGCACACGTCTGAACTCCAGTCA DNA 2: TGACTGGAGTTCAGACGTGTGCTCTTCCGATCTCATGACCTGGTCCTGCCAGAAGTTTCCTTCCACAGTGCGTACTGAGCACTAGATAGC RNA: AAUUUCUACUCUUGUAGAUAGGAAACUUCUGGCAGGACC was -3.27 lnKA
